Tested on: H3N8 A/Miami/2/63
Conditions: A/Miami/2/63, 48 h, 10 μM
Bridge positions count the residues as written; N and C are the ends. Square brackets hold non-standard residues; d marks the D form. Peptide text beside a SMILES is read from it.
observed-property: % inhibition H3N8 (%)

CC[C@@H](C)[C@H]1NC(=O)[C@@H](Cc2ccccc2)NC(=O)[C@@H](C)NC(=O)[C@@H](Cc2ccccc2)NC(=O)[C@@H](Cc2c[nH]c3ccccc23)NC(=O)[C@@H]([C@H](C)O)NC(=O)[C@H](NC(=O)[C@H](CCCCN)NC(=O)[C@H](CCCCN)NC(=O)[C@H](CCCNC(=N)N)NC(=O)[C@@H](N)CCCNC(=N)N)CSSC[C@H](C(=O)O)NC(=O)[C@@H](CC(N)=O)NC1=O [PSP IV A1, H-RRKKctwfafinc-OH] (H-RRKK[dC][dT][dW][dF][dA][dF][dI][dN][dC]-OH; disulfide 5-13) : 83
CC[C@@H](C)[C@H]1NC(=O)[C@@H](Cc2ccccc2)NC(=O)[C@@H](Cc2c[nH]cn2)NC(=O)[C@@H](Cc2ccccc2)NC(=O)[C@@H](Cc2c[nH]c3ccccc23)NC(=O)[C@@H]([C@H](C)O)NC(=O)[C@H](NC(=O)[C@H](CCCCN)NC(=O)[C@H](CCCCN)NC(=O)[C@H](CCCNC(=N)N)NC(=O)[C@@H](N)CCCNC(=N)N)CSSC[C@H](C(=O)O)NC(=O)[C@@H](CC(N)=O)NC1=O [PSP IV A7, H-RRKKctwfhfinc-OH] (H-RRKK[dC][dT][dW][dF][dH][dF][dI][dN][dC]-OH; disulfide 5-13) : 79
CC[C@@H](C)[C@H]1NC(=O)[C@@H](Cc2ccccc2)NC(=O)[C@@H](C(C)C)NC(=O)[C@@H](Cc2ccccc2)NC(=O)[C@@H](Cc2c[nH]c3ccccc23)NC(=O)[C@@H]([C@H](C)O)NC(=O)[C@H](NC(=O)[C@H](CCCCN)NC(=O)[C@H](CCCCN)NC(=O)[C@H](CCCNC(=N)N)NC(=O)[C@@H](N)CCCNC(=N)N)CSSC[C@H](C(=O)O)NC(=O)[C@@H](CC(N)=O)NC1=O [PSP IV A18, H-RRKKctwfvfinc-OH] (H-RRKK[dC][dT][dW][dF][dV][dF][dI][dN][dC]-OH; disulfide 5-13) : 96
CC[C@@H](C)[C@H]1NC(=O)[C@@H](Cc2ccccc2)NC(=O)[C@@H](CCCNC(=N)N)NC(=O)[C@@H](Cc2ccccc2)NC(=O)[C@@H](Cc2c[nH]c3ccccc23)NC(=O)[C@@H]([C@H](C)O)NC(=O)[C@H](NC(=O)[C@H](CCCCN)NC(=O)[C@H](CCCCN)NC(=O)[C@H](CCCNC(=N)N)NC(=O)[C@@H](N)CCCNC(=N)N)CSSC[C@H](C(=O)O)NC(=O)[C@@H](CC(N)=O)NC1=O [PSP III B5, H-RRKKctwfrfinc-OH] (H-RRKK[dC][dT][dW][dF][dR][dF][dI][dN][dC]-OH; disulfide 5-13) : 92
CC[C@@H](C)[C@H]1NC(=O)[C@@H](Cc2ccccc2)NC(=O)[C@@H](CO)NC(=O)[C@@H](Cc2ccccc2)NC(=O)[C@@H](Cc2c[nH]c3ccccc23)NC(=O)[C@@H]([C@H](C)O)NC(=O)[C@H](NC(=O)[C@H](CCCCN)NC(=O)[C@H](CCCCN)NC(=O)[C@H](CCCNC(=N)N)NC(=O)[C@@H](N)CCCNC(=N)N)CSSC[C@H](C(=O)O)NC(=O)[C@@H](CC(N)=O)NC1=O [PSP IV A16, H-RRKKctwfsfinc-OH] (H-RRKK[dC][dT][dW][dF][dS][dF][dI][dN][dC]-OH; disulfide 5-13) : 93
CC[C@@H](C)[C@H]1NC(=O)[C@@H](Cc2ccccc2)NC(=O)[C@@H](CC(=O)O)NC(=O)[C@@H](Cc2ccccc2)NC(=O)[C@@H](Cc2c[nH]c3ccccc23)NC(=O)[C@@H]([C@H](C)O)NC(=O)[C@H](NC(=O)[C@H](CCCCN)NC(=O)[C@H](CCCCN)NC(=O)[C@H](CCCNC(=N)N)NC(=O)[C@@H](N)CCCNC(=N)N)CSSC[C@H](C(=O)O)NC(=O)[C@@H](CC(N)=O)NC1=O [PSP IV A3, H-RRKKctwfdfinc-OH] (H-RRKK[dC][dT][dW][dF][dD][dF][dI][dN][dC]-OH; disulfide 5-13) : 59
CC[C@@H](C)[C@H]1NC(=O)[C@@H](Cc2ccccc2)NC(=O)[C@@H](Cc2ccc(O)cc2)NC(=O)[C@@H](Cc2ccccc2)NC(=O)[C@@H](Cc2c[nH]c3ccccc23)NC(=O)[C@@H]([C@H](C)O)NC(=O)[C@H](NC(=O)[C@H](CCCCN)NC(=O)[C@H](CCCCN)NC(=O)[C@H](CCCNC(=N)N)NC(=O)[C@@H](N)CCCNC(=N)N)CSSC[C@H](C(=O)O)NC(=O)[C@@H](CC(N)=O)NC1=O [PSP IV A20, H-RRKKctwfyfinc-OH] (H-RRKK[dC][dT][dW][dF][dY][dF][dI][dN][dC]-OH; disulfide 5-13) : 89
